Item-by-item account of TGI
Test system: CAKI-1 renal
Test: NCI tumour cell line growth inhibition, 48 h
Please state the figure in µM; there is no need to write the unit.

Molecule | Unit name | TGI
COc1ccc2/c(=C/c3ccc(N(C)C)cc3)c3cc(-c4ccccc4)[n+](C)n3c2c1 | µM | 7.77

Turning now to a further molecule:
Which TGI is listed for Cc1ccc(C2=CC(=O)OC(C[P+](c3ccccc3)(c3ccccc3)c3ccccc3)(c3ccccc3)O2)cc1 (stereo not given) ?
29.3

###

Test system: NCI-H23 lung
Test: NCI tumour cell line growth inhibition, 48 h; in the data active means GI50 below about 0.43 µM; inactive means the rest
Hi there, use one of these labels in your reply, thanks! active, inactive

Check out these entries, answers already filled in.
Smiles code | Target | Class label
CCOC(=O)Nc1cc2c(c(N)n1)N=C(c1ccccc1)CO2 | NCI-H23 lung | inactive
Cc1nc(Nc2cccnc2)sc1C(=O)/C=C/c1ccc(F)cc1 | NCI-H23 lung | inactive

How did this test come out for C[n+]1c(/C=C/c2c(O)ccc3ccccc23)ccc2ccccc21 ?
inactive

How did this test come out for CCN1CCN(c2cc(C)c3cc(NC(=O)c4ccc(OC)c(OC)c4)ccc3n2)CC1 ?
inactive

How did this test come out for COc1ccc2nc3ccccc3c(NCc3ccc(F)cc3)c2c1 ?
inactive

How did this test come out for CN(C)CC[C@H](CSc1ccccc1)Nc1ccc(S(=O)(=O)NC(=O)c2ccc(N3CCN(Cc4ccccc4-c4ccc(Cl)cc4)CC3)cc2)cc1[N+](=O)[O-] ?
inactive

How did this test come out for Cc1cc(N[C@@H]2CCC[C@H](Nc3ccnc4cc(Cl)ccc34)C2)nc(N2CCCCCC2)n1 ?
inactive

How did this test come out for COc1cc(N=Nc2ccc(O)c3ncccc23)c2ncccc2c1 ?
inactive

How did this test come out for COc1cnc2c(c1)C(=O)c1c-2n(CCCN2CCOCC2)c(=O)c2cc(Cl)ccc12 ?
active

###

System: M14 melanoma
Test: NCI tumour cell line growth inhibition, 48 h
Parameter measured: TGI (µM)
Please state the figure in µM; there is no need to write the unit.

Example entries begin here.
Molecule | TGI / µM
C[n+]1c(/C=C/c2c(O)ccc3ccccc23)ccc2ccccc21 | 12.8
Cc1ccc(C2=CC(=O)OC(C[P+](c3ccccc3)(c3ccccc3)c3ccccc3)(c3ccccc3)O2)cc1 (stereo not given) | 32
CC(C)(/C=C(\C#N)C(=O)N1CCC[C@@H](n2nc(-c3ccc(Oc4ccccc4)cc3F)c3c(N)ncnc32)C1)N1CCN(C2COC2)CC1 | 18.8
N=c1c2c(-c3ccccc3)c(-c3ccccc3)n(Cc3ccccc3)c2ncn1C1CCC(O)CC1 (stereo not given) | 2.38
COC(=O)c1c2c(c(C)[n+]([O-])c1C)C(=O)C=C(NCc1ccc(F)cc1)C2=O | 1.9
C=CCCCCC1CCC2CCC(CCCCC=C)N12 (stereo not given) | 31.3

Look up TGI with M14 melanoma for this molecule: CC1(C)OC2C(CO[Si](C)(C)C(C)(C)C)OC(n3c(I)c(C#C[Si](C)(C)C)c(=O)[nH]c3=O)C2O1 (stereo not given)
28.1

Look up TGI with M14 melanoma for this molecule: S=c1c2cn[nH]c2nc2scc(-c3ccc(Cl)cc3)n12
36.3

###

Item-by-item account of GI50
Tested on: OVCAR-8 ovarian
Assay: NCI tumour cell line growth inhibition, 48 h

Smiles code | GI50
N#Cc1nn(-c2cc(=O)[nH]c3ccc(Cl)cc23)c(N)c1C#N | > 100 µM
Clc1cc2c(c(CSc3nc4ccccc4n4cccc34)c1)OCOC2 | 20.6 µM
COc1ccc(-c2ccc(=O)oc2C#Cc2cc(OC)c(OC)c(OC)c2)cc1O | 0.775 µM
COc1ccc(-c2nnc3n(C)c(=O)c4ccccc4n23)cc1N | 4.94 µM

Which GI50 is listed for COc1cnc2c(c1)C(=O)c1c-2n(CCCN2CCOCC2)c(=O)c2cc(Cl)ccc12 ?
0.578 µM

Which GI50 is listed for O=c1c(F)cn(Cc2ccc(C34CC5CC(CC(C5)C3)C4)c(O)c2)c(=O)n1Cc1ccc(C23CC4CC(CC(C4)C2)C3)c(O)c1 ?
14.5 µM

Which GI50 is listed for COc1ccc2nc3ccccc3c(NCc3ccc(F)cc3)c2c1 ?
2 µM

Which GI50 is listed for COc1cc(C(=O)N2CCN(C(=O)c3cc(OC)c(OC)c(OC)c3)C2=S)cc(OC)c1OC ?
21.9 µM

Which GI50 is listed for S=c1[nH]c(=S)c2cc3ccccc3nc2[nH]1 ?
> 100 µM

Which GI50 is listed for O=C(Nc1ccc(Br)cc1F)c1cc(Cl)ccc1O ?
1.06 µM

Which GI50 is listed for O=c1oc2ccc(-c3ccc(F)cc3F)cc2c(=O)n1-c1cccc(C(F)(F)F)c1 ?
2.05 µM

Which GI50 is listed for NC(N)=N/N=C/c1c(Cl)cccc1Cl ?
30 µM
